- TARGET OR TEST SYSTEM: mouse ATB^0,+ (Mus musculus, UniProt Q9JMA9)
- Sequence (Q9JMA9 1-638): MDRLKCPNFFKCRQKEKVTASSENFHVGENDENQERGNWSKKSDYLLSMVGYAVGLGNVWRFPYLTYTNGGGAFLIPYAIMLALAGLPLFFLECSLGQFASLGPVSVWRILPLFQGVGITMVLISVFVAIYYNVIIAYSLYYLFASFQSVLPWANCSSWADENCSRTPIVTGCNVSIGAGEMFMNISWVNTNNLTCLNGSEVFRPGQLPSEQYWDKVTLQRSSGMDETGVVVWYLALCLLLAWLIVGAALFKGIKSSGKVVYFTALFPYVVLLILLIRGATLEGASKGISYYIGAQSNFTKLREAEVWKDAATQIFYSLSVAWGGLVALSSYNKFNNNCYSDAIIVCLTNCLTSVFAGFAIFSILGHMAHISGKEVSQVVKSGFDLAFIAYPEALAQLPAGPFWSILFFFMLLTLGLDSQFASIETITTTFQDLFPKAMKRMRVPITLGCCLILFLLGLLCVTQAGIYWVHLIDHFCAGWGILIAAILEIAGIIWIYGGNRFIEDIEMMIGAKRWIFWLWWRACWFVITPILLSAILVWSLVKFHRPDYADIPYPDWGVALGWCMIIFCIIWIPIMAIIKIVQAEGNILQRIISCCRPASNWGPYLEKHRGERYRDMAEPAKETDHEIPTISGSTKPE
- REPORTED CONDITIONS: oocytes, membrane potential −50 mV
This section presents compounds with their documented K0.5 (concentration inducing half-maximal current; Michaelis-Menten constant) values.
REPORTED ENDPOINT: K0.5 (concentration inducing half-maximal current; Michaelis-Menten constant) (mM)

INSERT INTO assay_data (compound, target_or_test_system, reported_result) VALUES
  ('CC(=N)NCCCC[C@H](N)C(=O)O', 'mouse ATB^0,+ (Mus musculus, UniProt Q9JMA9)', 2.72),
  ('CSC(N)=NCCC[C@H](N)C(=O)O', 'mouse ATB^0,+ (Mus musculus, UniProt Q9JMA9)', 1.36),
  ('CC(=N)NCCC[C@H](N)C(=O)O', 'mouse ATB^0,+ (Mus musculus, UniProt Q9JMA9)', 2.24),
  ('C[N+](C)(C)CC(O)CC(=O)[O-] (stereo not drawn) [carnitine, β-hydroxy-γ-trimethylaminobutyrate]', 'mouse ATB^0,+ (Mus musculus, UniProt Q9JMA9)', 1.8);

* * *

This section presents compounds with their documented Current in X. laevis oocytes (nA), D-isomer values.
- TARGET OR TEST SYSTEM: mouse ATB^0,+ (Mus musculus)
- REPORTED CONDITIONS: D-amino acid 1 mM; NaCl pH 7.5
REPORTED ENDPOINT: Current in X. laevis oocytes (nA), D-isomer

INSERT INTO measurements (cpd_smiles, reported_result) VALUES
  ('NCCCC[C@H](N)C(=O)O', '9 ± 9 nA'),
  ('N[C@H](Cc1c[nH]c2ccccc12)C(=O)O', '157 ± 23 nA'),
  ('N[C@H](CO)C(=O)O', '267 ± 23 nA'),
  ('N[C@H](Cc1c[nH]cn1)C(=O)O', '29 ± 6 nA');

* * *

- TARGET OR TEST SYSTEM: mouse ATB^0,+ (Mus musculus, UniProt Q9JMA9)
pIC50: −log10 of the molar value.
REPORTED ENDPOINT: pIC50

INSERT INTO results (compound, target_or_test_system, reported_result) VALUES
  ('N[C@@H](CC(=O)OCc1ccccc1)C(=O)O [L-Aspartate β-benzyl ester]', 'mouse ATB^0,+ (Mus musculus, UniProt Q9JMA9)', 4.15),
  ('N=C(NCCC[C@H](N)C(=O)O)N[N+](=O)[O-] [L-NNA, N^ω-nitro-L-arginine]', 'mouse ATB^0,+ (Mus musculus, UniProt Q9JMA9)', 3.25),
  ('N[C@@H](CCC(=O)OCc1ccccc1)C(=O)O [L-Glutamate γ-benzyl ester]', 'mouse ATB^0,+ (Mus musculus, UniProt Q9JMA9)', 3.81),
  ('C[N+](C)(C)CC(O)CC(=O)[O-] (stereo not drawn) [carnitine, β-hydroxy-γ-trimethylaminobutyrate]', 'mouse ATB^0,+ (Mus musculus, UniProt Q9JMA9)', 3.22);
